tested on: AVEFA; experiment: Pre-emergence herbicidal action against AVEFA; format: in vivo, Avena fatua; conditions: 320 g/ha, scored visually after 3 weeks vs untreated controls
Pre-emergence action against AVEFA in % values for the compounds below.
EXPERIMENTAL_ENDPOINT: Pre-emergence action against AVEFA in % (%)

COMPOUND: CC#Cc1cc(C)c(C2=C(OC(=O)C(C)C)C3(CCC(COCC)C3)NC2=O)c(Cl)c1 (centres unmarked)
UNITS_LABEL: %
REPORTED_RESULT: 100

COMPOUND: CC#Cc1cc(C)c(C2=C(O)C3(CCC(COCC)C3)NC2=O)c(Cl)c1 (centres unmarked) [Example I-02]
UNITS_LABEL: %
REPORTED_RESULT: 100

COMPOUND: CC#Cc1cc(F)c(C2=C(OC(=O)C(C)C)C3(CCC(COC)C3)NC2=O)c(OC)c1 (centres unmarked) [Example P-66]
UNITS_LABEL: %
REPORTED_RESULT: 100

COMPOUND: CC#Cc1cc(C)c(C2=C(O)C3(CCC(COCCOC)C3)NC2=O)c(Cl)c1 (centres unmarked) [Example I-50]
UNITS_LABEL: %
REPORTED_RESULT: 100

COMPOUND: CC#Cc1cc(Br)c(C2=C(OC(=O)OCC)C3(CCC(COC)C3)NC2=O)c(OCC)c1 (centres unmarked) [Example P-94]
UNITS_LABEL: %
REPORTED_RESULT: 100

COMPOUND: CC#Cc1cc(C)c(C2=C(O)C3(CCC(COCCOC)C3)NC2=O)c(Cl)c1 (centres unmarked) [Example I-51]
UNITS_LABEL: %
REPORTED_RESULT: 100

COMPOUND: CC#Cc1cc(Br)c(C2=C(O)C3(CCC(COC)C3)NC2=O)c(OCC)c1 (centres unmarked) [Example I-66]
UNITS_LABEL: %
REPORTED_RESULT: 100

COMPOUND: CC#Cc1cc(Br)c(C2=C(OC(=O)OCC)[C@]3(CC[C@H](COCC)C3)NC2=O)c(OC)c1 (stereo in doubt)
UNITS_LABEL: %
REPORTED_RESULT: 100

COMPOUND: CC#Cc1cc(C)c(C2=C(OC(=O)OCC)C3(CCC(COC)C3)NC2=O)c(OC)c1 (centres unmarked) [Example P-55]
UNITS_LABEL: %
REPORTED_RESULT: 80

COMPOUND: CC#Cc1cc(Br)c(C2=C(O)C3(CCC(COC)C3)NC2=O)c(OCC)c1 (centres unmarked) [Example I-69]
UNITS_LABEL: %
REPORTED_RESULT: 90

COMPOUND: CC#Cc1cc(C)c(C2=C(OC(=O)OCC)C3(CCC(COC)C3)NC2=O)c(OC)c1 (centres unmarked) [Example P-47]
UNITS_LABEL: %
REPORTED_RESULT: 100

COMPOUND: CC#Cc1cc(C)c(C2=C(O)C3(CCC(COCCC)C3)NC2=O)c(OC)c1 (centres unmarked)
UNITS_LABEL: %
REPORTED_RESULT: 80

COMPOUND: C#CCOCC1CCC2(C1)NC(=O)C(c1c(C)cc(C#CC)cc1Cl)=C2O (centres unmarked) [Example I-78]
UNITS_LABEL: %
REPORTED_RESULT: 90

COMPOUND: CC#Cc1cc(C)c(C2=C(OC(=O)OCC)C3(CCC(COCCOC)C3)NC2=O)c(Cl)c1 (centres unmarked) [Example P-75]
UNITS_LABEL: %
REPORTED_RESULT: 100

COMPOUND: CC#Cc1cc(C)c(C2=C(O)C3(CCC(COC)C3)NC2=O)c(OC)c1 (centres unmarked) [Example I-31]
UNITS_LABEL: %
REPORTED_RESULT: 80

COMPOUND: CC#Cc1cc(F)c(C2=C(O)C3(CCC(COCC)C3)NC2=O)c(OC)c1 (centres unmarked) [Example I-42]
UNITS_LABEL: %
REPORTED_RESULT: 90

COMPOUND: CC#Cc1cc(C)c(C2=C(O)C3(CCC(COCC)C3)NC2=O)c(Br)c1 (centres unmarked) [Example I-20]
UNITS_LABEL: %
REPORTED_RESULT: 100

COMPOUND: CC#Cc1cc(F)c(C2=C(O)C3(CCC(COC)C3)NC2=O)c(OC)c1 (centres unmarked) [Example I-40]
UNITS_LABEL: %
REPORTED_RESULT: 100

COMPOUND: CC#Cc1cc(C)c(C2=C(OC(=O)OCC)C3(CCC(COCCOC)C3)NC2=O)c(OC)c1 (centres unmarked) [Example P-79]
UNITS_LABEL: %
REPORTED_RESULT: 100

COMPOUND: CC#Cc1cc(C)c(C2=C(O)C3(CCC(COCCOC)C3)NC2=O)c(OC)c1 (centres unmarked)
UNITS_LABEL: %
REPORTED_RESULT: 100

COMPOUND: CC#Cc1cc(C)c(C2=C(OC(=O)OCC)C3(CCC(COCC)C3)NC2=O)c(OC)c1 (centres unmarked) [Example P-48]
UNITS_LABEL: %
REPORTED_RESULT: 100

COMPOUND: CC#Cc1cc(Br)c(C2=C(OC(=O)OCC)C3(CCC(COCC)C3)NC2=O)c(OC)c1 (centres unmarked) [Example P-01]
UNITS_LABEL: %
REPORTED_RESULT: 100

COMPOUND: C#CCOCC1CCC2(C1)NC(=O)C(c1c(C)cc(C#CC)cc1Cl)=C2OC(=O)OCC (centres unmarked) [Example P-100]
UNITS_LABEL: %
REPORTED_RESULT: 90

COMPOUND: CC#Cc1cc(Br)c(C2=C(OC(=O)C(C)C)C3(CCC(COC)C3)NC2=O)c(OC)c1 (centres unmarked)
UNITS_LABEL: %
REPORTED_RESULT: 100

COMPOUND: CC#Cc1cc(F)c(C2=C(OC(=O)OCC)C3(CCC(COCCC)C3)NC2=O)c(OC)c1 (centres unmarked) [Example P-84]
UNITS_LABEL: %
REPORTED_RESULT: 80

COMPOUND: CC#Cc1cc(Br)c(C2=C(O)[C@]3(CC[C@H](COCC)C3)NC2=O)c(OC)c1 (stereo in doubt)
UNITS_LABEL: %
REPORTED_RESULT: 100

COMPOUND: C=CCOCC1CCC2(C1)NC(=O)C(c1c(C)cc(C#CC)cc1Br)=C2OC(=O)OCC (centres unmarked) [Example P-88]
UNITS_LABEL: %
REPORTED_RESULT: 90

COMPOUND: CC#Cc1cc(C)c(C2=C(OC(=O)OCC)C3(CCC(COCCOC)C3)NC2=O)c(Cl)c1 (centres unmarked) [Example P-76]
UNITS_LABEL: %
REPORTED_RESULT: 100

COMPOUND: CC#Cc1cc(F)c(C2=C(OC(=O)OCC)C3(CCC(COCC)C3)NC2=O)c(OC)c1 (centres unmarked) [Example P-69]
UNITS_LABEL: %
REPORTED_RESULT: 80

Origin of measurements: patent US20220386606A1
